Would you mind telling me the reported EC50 of each entry?
# test target: UniProtKB P47901
# Sequence (P47901 whole entry): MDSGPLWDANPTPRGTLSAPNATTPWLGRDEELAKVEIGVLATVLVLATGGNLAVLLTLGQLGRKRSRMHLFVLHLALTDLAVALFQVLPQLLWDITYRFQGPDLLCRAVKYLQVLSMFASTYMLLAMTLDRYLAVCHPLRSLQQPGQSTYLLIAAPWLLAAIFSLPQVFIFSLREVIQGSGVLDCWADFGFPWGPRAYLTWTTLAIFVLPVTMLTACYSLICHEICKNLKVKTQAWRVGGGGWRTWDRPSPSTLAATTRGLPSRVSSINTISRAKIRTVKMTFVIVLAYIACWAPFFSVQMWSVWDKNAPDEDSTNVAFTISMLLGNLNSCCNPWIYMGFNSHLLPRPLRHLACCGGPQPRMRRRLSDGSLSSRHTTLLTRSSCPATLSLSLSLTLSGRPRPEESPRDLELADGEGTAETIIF
# measurement protocol: Agonist activity at human V1b receptor expressed in CHO cells assessed as calcium mobilization measured after 30 mins by Fluo-4-AM dye based FLIPR assay
Numbered stars: 1 amine (or outer) side, 2 acyl side, 3 side chain; on linkers, the order of the positions; unused ones are H or OH. Bridge positions count the residues as written; N and C are the ends. Square brackets hold non-standard residues; d marks the D form. Peptide text beside a SMILES is read from it. Hyp = O=C(O)[C@@H]1C[C@@H](O)CN1; Suc = O=C(CCC(=O)[*:2])[*:1]; Dap = NC[C@H](N)C(=O)O; Mpa = O=C(O)CCS

| compound | test target | EC50 |
| --- | --- | --- |
| CC[C@H](C)[C@@H]1NC(=O)[C@H](Cc2ccc(O)cc2)NC(=O)CCSSC[C@@H](C(=O)N2CCC[C@H]2C(=O)N[C@@H](CC(C)C)C(=O)NCC(N)=O)NC(=O)[C@H](CCC(=O)O)NC(=O)[C@H](CCC(N)=O)NC1=O ([Mpa]YIQECPLG-NH2; disulfide 1-6) | UniProtKB P47901 | > 100 nM |

Then this compound:
Reported EC50 of CC[C@H](C)[C@@H]1NC(=O)[C@H](Cc2ccc(O)cc2)NC(=O)CCC(=O)NC[C@@H](C(=O)N2C[C@H](O)C[C@H]2C(=O)N[C@@H](CC(C)C)C(=O)NCC(N)=O)NC(=O)[C@H](CC(N)=O)NC(=O)[C@H](CCC(N)=O)NC1=O (YIQN[Dap][Hyp]LG-NH2; linker N-5 via Suc) : > 100 nM

====

# test target: UniProtKB P47901
# measurement protocol: Agonist activity at human V1b receptor expressed in CHO cells assessed as calcium mobilization measured after 30 mins by Fluo-4-AM dye based FLIPR assay
Bridge positions count the residues as written; N and C are the ends. Square brackets hold non-standard residues; d marks the D form. Peptide text beside a SMILES is read from it. Mpa = O=C(O)CCS
outcome measure: EC50 (nM)
Numbers only, in nM.

These recorded examples may help you get a feel for the data.
| compound | EC50 (nM) |
| --- | --- |
| CC[C@H](C)[C@@H]1NC(=O)[C@H](Cc2ccc(O)cc2)NC(=O)CCSSC[C@@H](C(=O)N2CCC[C@H]2C(=O)N[C@@H](CC2CCCCC2)C(=O)NCC(N)=O)NC(=O)[C@H](CC(N)=O)NC(=O)[C@H](CCC(N)=O)NC1=O | 1.4 |
| CC[C@H](C)[C@@H]1NC(=O)[C@H](Cc2ccc(O)cc2)NC(=O)CCSSC[C@@H](C(=O)N2CCC[C@H]2C(=O)N[C@@H](CC(C)C)C(=O)NNC(N)=O)NC(=O)[C@H](CC(N)=O)NC(=O)[C@H](CCC(N)=O)NC1=O | 7.3 |
| CC[C@H](C)[C@@H]1NC(=O)[C@H](Cc2ccc(O)cc2)NC(=O)CCSSC[C@@H](C(=O)N2CCC[C@H]2C(=O)N[C@@H](Cc2ccccc2)C(=O)NCC(N)=O)NC(=O)[C@H](CC(N)=O)NC(=O)[C@H](CCC(N)=O)NC1=O ([Mpa]YIQNCPFG-NH2; disulfide 1-6) | 2.4 |

Then this compound:
Reported EC50 of CCCCCC[C@H](NC(=O)[C@@H]1CCCN1C(=O)[C@@H]1CSSCCC(=O)N[C@@H](Cc2ccc(O)cc2)C(=O)N[C@@H]([C@@H](C)CC)C(=O)N[C@@H](CCC(N)=O)C(=O)N[C@@H](CC(N)=O)C(=O)N1)C(=O)NCC(N)=O : 0.55
